Biological target: human DGKα (Homo sapiens (Human), UniProt P23743)
Sequence (P23743 whole entry, looked up): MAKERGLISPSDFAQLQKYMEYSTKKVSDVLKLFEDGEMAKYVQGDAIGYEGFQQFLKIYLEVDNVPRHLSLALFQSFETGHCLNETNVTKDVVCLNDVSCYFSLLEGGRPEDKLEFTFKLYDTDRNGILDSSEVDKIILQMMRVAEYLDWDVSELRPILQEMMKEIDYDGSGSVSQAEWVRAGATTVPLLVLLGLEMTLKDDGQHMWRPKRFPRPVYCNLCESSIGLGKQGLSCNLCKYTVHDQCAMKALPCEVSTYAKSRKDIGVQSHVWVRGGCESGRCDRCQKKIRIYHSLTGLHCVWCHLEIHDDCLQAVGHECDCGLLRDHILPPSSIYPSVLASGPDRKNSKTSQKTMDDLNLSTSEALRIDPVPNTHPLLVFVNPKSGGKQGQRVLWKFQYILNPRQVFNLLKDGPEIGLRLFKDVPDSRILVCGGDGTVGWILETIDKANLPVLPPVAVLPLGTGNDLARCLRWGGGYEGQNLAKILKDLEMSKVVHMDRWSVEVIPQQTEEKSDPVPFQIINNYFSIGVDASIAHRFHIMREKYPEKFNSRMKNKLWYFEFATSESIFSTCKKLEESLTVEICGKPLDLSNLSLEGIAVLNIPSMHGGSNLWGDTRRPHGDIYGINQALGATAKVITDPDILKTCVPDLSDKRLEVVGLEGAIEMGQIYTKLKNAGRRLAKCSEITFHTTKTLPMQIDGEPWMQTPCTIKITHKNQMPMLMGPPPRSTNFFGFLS
Experiment: DGKα ADPGLO assay (detergent/lipid micelle substrate)
Type: biochemical
Details: ADPGLO assay; read-out: DGK alpha ADPGLO IC50
This section presents compounds with their documented pIC50 values.
The quantity pIC50 is defined as the negative base-10 logarithm of the molar concentration.

Below: 5 compounds and their reported pIC50.
[[record]]
compound = "CCC(c1ccc(Br)cc1)N1C[C@H](C)N(c2nc(=O)n(C)c3ccc(C#N)nc23)C[C@H]1CC (stereo partly shown) [Example 321]"
endpoint_result = 8.00

[[record]]
compound = "CCC(c1ccc(C(C)(C)C#N)cc1)N1C[C@H](C)N(c2nc(=O)n(C)c3ccc(C#N)nc23)C[C@H]1CC (stereo partly shown) [Example 317]"
endpoint_result = 7.77

[[record]]
compound = "CCOc1ccc2c(n1)c(N1C[C@@H](CC)N(C(CC)c3ccc(C(F)(F)F)cc3)C[C@@H]1CC)nc(=O)n2C (stereo partly shown) [Example 437]"
endpoint_result = 3.60

[[record]]
compound = "CC[C@H]1CN(C(C)c2ccc(C(F)(F)F)cc2)[C@H](CC)CN1c1nc(=O)n(C)c2ccc(OC(F)F)nc12 (stereo partly shown) [Example 445]"
endpoint_result = 6.02

[[record]]
compound = "CC[C@H]1CN(C(C)c2ccc(C(F)(F)F)cc2)[C@H](CC)CN1c1nc(=O)n(C)c2ccc(OC)nc12 (single isomer, unassigned) [Example 427]"
endpoint_result = 6.34


In: What value of measured pIC50 is listed for CC[C@H]1CN(C(C)c2ccc(C(F)(F)F)cc2)[C@H](CC)CN1c1nc(=O)n(C)c2ccc(OCCN(C)C)nc12 (stereo partly shown) [Example 431] ?
Out: 3.60

In: What value of measured pIC50 is listed for CCC(c1ccc(OC)cc1)N1C[C@H](C)N(c2nc(=O)n(C)c3ccc(C#N)nc23)C[C@H]1CC (stereo partly shown) [Example 304] ?
Out: 7.92
